The following molecules are listed with their measured Topo I-mediated DNA cleavage (REC, Relative Effective Concentration) values.
target: human topoisomerase I (Homo sapiens); construct: 15 amino acid vector-derived fusion (pET-11a leader); made in house; host or cells: E. coli BL21(DE3); assay: Topo I cleavage assay (plasmid YEpG DNA); assay type: biochemical; details: concentration relative to camptothecin (CPT) = 1 producing the same cleavage on the plasmid DNA
Sequence (P11387 whole entry, the tested form may be a part): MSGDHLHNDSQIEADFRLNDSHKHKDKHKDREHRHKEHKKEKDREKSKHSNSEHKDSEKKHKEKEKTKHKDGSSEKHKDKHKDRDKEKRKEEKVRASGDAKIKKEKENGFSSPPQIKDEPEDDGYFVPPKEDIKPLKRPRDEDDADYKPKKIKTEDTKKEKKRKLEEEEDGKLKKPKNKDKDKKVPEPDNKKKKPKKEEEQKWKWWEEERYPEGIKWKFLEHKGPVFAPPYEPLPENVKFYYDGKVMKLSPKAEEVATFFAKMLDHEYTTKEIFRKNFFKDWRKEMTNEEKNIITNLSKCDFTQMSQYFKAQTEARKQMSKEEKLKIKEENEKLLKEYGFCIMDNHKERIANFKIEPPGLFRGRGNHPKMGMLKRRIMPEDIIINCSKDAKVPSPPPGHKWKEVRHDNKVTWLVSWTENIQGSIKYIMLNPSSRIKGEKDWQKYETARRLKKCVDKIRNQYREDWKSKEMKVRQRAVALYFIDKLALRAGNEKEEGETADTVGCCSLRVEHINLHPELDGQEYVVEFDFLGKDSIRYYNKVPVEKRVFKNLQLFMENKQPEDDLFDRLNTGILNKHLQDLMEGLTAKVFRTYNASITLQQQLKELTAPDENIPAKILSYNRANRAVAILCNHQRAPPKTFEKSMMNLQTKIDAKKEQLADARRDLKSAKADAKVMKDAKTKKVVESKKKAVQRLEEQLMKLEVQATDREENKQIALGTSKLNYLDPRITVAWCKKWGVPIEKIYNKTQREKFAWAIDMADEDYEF

Record excerpt, results attached:
molecule	recorded.value
COc1cc2cc3[n+](cc2cc1OC)CCc1c-3ccc(OC)c1OC.[Cl-]	>1000
COc1cc2cc3[n+](cc2cc1OC)CCc1c-3ccc2c1OCO2.[Cl-]	1
COc1cc2cc3c4ccc(OC)c(OC)c4cc[n+]3cc2cc1OC.[Cl-] [Compound 10b]	>1000
Cc1nc(-c2ccc(O)c(O)c2)cc2cc(O)c(O)cc12	>1000
COc1ccc(Cc2nccc3cc(OC)c(OC)cc23)cc1OC	>1000

Q: Missing value: Topo I-mediated DNA cleavage (REC, Relative Effective Concentration), human topoisomerase I (Homo sapiens), entry "COc1cc2cc3[n+](c(C)c2cc1OC)CCc1c-3ccc2c1OCO2" . Fill in?
Result: 10

Q: Record: CC[C@@]1(O)C(=O)OCc2c1cc1n(c2=O)Cc2cc3ccccc3nc2-1 [CPT, camptothecin, reference compound]
Result: 1

====

tested on: calf thymus topoisomerase II; experiment: Topo II cleavage assay (plasmid YEpG DNA); assay type: biochemical; settings: concentration relative to VM-26 = 1 producing the same cleavage on the plasmid DNA
Sorting guide: entries reporting Topo II-mediated DNA cleavage (REC, Relative Effective Concentration) beneath 100 go in the Condition met pile, the rest go in the Condition not met pile.

Consider the worked cases shown below.
compound	assayed.system	classification
COc1cc2cc3c4ccc5c(c4cc[n+]3c(C)c2cc1OC)OCO5	calf thymus topoisomerase II	Condition met
COc1cc2c(cc1OC)-c1cc3cc(OC)c(OC)cc3c(C)[n+]1CC2	calf thymus topoisomerase II	Condition not met
COc1cc([C@@H]2c3cc4c(cc3[C@@H](O[C@@H]3O[C@@H]5CO[C@@H](c6cccs6)O[C@H]5[C@H](O)[C@H]3O)[C@H]3COC(=O)[C@H]23)OCO4)cc(OC)c1O [VM-26, reference compound]	calf thymus topoisomerase II	Condition met

Q: State whether 100 exceeds Topo II-mediated DNA cleavage (REC, Relative Effective Concentration) recorded for COc1cc2cc3c4cc(OC)c(OC)cc4cc[n+]3cc2cc1OC.[Cl-] [Compound 10a] .
Result: Condition met

Q: Record: "COc1cc2c(cc1OC)-c1cc3cc(OC)c(OC)cc3c[n+]1CC2.[Cl-]"
Result: Condition not met

Q: Record: "Cc1nc(-c2ccc(O)c(O)c2)cc2cc(O)c(O)cc12"
Result: Condition not met

Q: Record: "COc1ccc(Cc2nccc3c4c(ccc23)OCO4)cc1OC"
Result: Condition not met

Q: Record: "COc1cc2cc3[n+](cc2cc1OC)CCc1c-3ccc(OC)c1OC.[Cl-]"
Result: Condition not met

====

target: human topoisomerase I (Homo sapiens); construct: 15 amino acid vector-derived fusion (pET-11a leader); made in house; host or cells: E. coli BL21(DE3); experiment: Topo I cleavage assay (plasmid YEpG DNA); format: biochemical; details: concentration relative to camptothecin (CPT) = 1 producing the same cleavage on the plasmid DNA
The following compounds are listed with their measured Topo I-mediated DNA cleavage (REC, Relative Effective Concentration) values.
// keep it numeric: no unit symbol after the value

compound	recorded.value
COc1cc2c(cc1OC)-c1cc3cc(OC)c(OC)cc3c[n+]1CC2.[Cl-]	20
COc1cc2cc3c4ccc5c(c4cc[n+]3cc2cc1OC)OCO5.[Cl-] [Compound 10c]	10
COc1cc2cc3c4cc(OC)c(OC)cc4cc[n+]3cc2cc1OC.[Cl-] [Compound 10a]	1000

Q: Any idea what its Topo I-mediated DNA cleavage (REC, Relative Effective Concentration) is? The compound is COc1cc2cc(-c3ccc4c(c3)OCO4)nc(C)c2cc1OC [Compound 12b]
Result: 1000

Q: Record: "COc1cc2cc3c4ccc5c(c4cc[n+]3c(C)c2cc1OC)OCO5"
Result: 10

Q: Record: "COc1cc2cc3[n+](c(C)c2cc1OC)CCc1c-3ccc(OC)c1OC"
Result: 1000

Q: Record: "COc1cc2c(cc1OC)-c1cc3cc(OC)c(OC)cc3c(C)[n+]1CC2"
Result: 5

====

Test system: calf thymus topoisomerase II
Assay: Topo II cleavage assay (plasmid YEpG DNA)
Type: biochemical
Conditions: concentration relative to VM-26 = 1 producing the same cleavage on the plasmid DNA
From the text: The plasmid pET11a and the E. coli strain BL21(DE3) used for enzyme expression were purchased from Novagen. IPTG was purchased from Sigma. The ECL system used for the Western blotting analysis of bacterial lysates was from Amersham (UK). All the restriction enzymes and Vent polymerase were from New England Biolabs. Mammalian topoisomerase II was isolated from calf thymus glands according to the published procedure (Halligan et al., J. Biol. Chem. 260:2475-2482 (1985)). […]
measured.property: Topo II-mediated DNA cleavage (REC, Relative Effective Concentration)

>>> df
                                   compound  recorded_value
0  COc1cc2cc3[n+](cc2cc1OC)CCc1c-3ccc2c1OCO2.[Cl-] [Compound 8c]              50
1  CC[C@@]1(O)C(=O)OCc2c1cc1n(c2=O)Cc2cc3ccccc3nc2-1 [CPT, camptothecin, reference compound]           >1000

Q: Missing value: Topo II-mediated DNA cleavage (REC, Relative Effective Concentration), calf thymus topoisomerase II, entry COc1cc2cc3c4ccc(OC)c(OC)c4cc[n+]3cc2cc1OC.[Cl-] [Compound 10b] . Fill in?
Result: 100

Q: Record: COc1cc2cc(-c3ccc4c(c3)OCO4)nc(C)c2cc1OC [Compound 12b]
Result: >1000

Q: Record: COc1ccc(Cc2nccc3c(OC)c(OC)ccc23)cc1OC.Cl [Compound 9b]
Result: 1000

Q: Record: COc1cc2cc3[n+](c(C)c2cc1OC)CCc1c-3ccc(OC)c1OC [Compound 7b]
Result: 1000

Q: Record: COc1ccc(Cc2nccc3cc(OC)c(OC)cc23)cc1OC [Compound 9a]
Result: 1000

Q: Record: COc1cc2cc3c4ccc5c(c4cc[n+]3cc2cc1OC)OCO5.[Cl-] [Compound 10c]
Result: 2

Q: Record: COc1cc2cc3[n+](c(C)c2cc1OC)CCc1c-3ccc2c1OCO2 [Compound 7c]
Result: 30

Attribution: patent EP0888346B1
